Target: PRMT5-MEP50 enzyme (Homo sapiens)
Construct: One virus expresses full length human PRMT5 with Flag-tag at N-terminus; Flag (N); purchased Charles River (Argenta); host or cells: insect cells (Sf9), baculovirus co-infection
Sequence (O14744 whole entry): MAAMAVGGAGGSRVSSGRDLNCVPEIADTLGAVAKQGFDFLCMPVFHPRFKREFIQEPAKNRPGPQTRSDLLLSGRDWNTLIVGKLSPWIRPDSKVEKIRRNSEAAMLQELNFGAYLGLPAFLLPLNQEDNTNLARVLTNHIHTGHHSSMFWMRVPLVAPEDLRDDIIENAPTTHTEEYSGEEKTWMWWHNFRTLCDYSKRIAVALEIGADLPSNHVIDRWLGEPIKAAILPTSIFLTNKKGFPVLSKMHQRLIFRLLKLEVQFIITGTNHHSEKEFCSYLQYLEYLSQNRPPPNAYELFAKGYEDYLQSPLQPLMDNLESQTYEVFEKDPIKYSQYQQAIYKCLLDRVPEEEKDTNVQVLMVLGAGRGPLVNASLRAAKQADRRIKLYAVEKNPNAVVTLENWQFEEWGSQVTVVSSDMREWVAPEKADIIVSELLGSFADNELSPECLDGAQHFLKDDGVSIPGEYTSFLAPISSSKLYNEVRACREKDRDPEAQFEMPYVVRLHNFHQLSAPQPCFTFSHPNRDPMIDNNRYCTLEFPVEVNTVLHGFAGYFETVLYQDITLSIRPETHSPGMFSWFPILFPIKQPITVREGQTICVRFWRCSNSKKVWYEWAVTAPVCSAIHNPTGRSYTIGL
Sequence (Q9BQA1 whole entry partner): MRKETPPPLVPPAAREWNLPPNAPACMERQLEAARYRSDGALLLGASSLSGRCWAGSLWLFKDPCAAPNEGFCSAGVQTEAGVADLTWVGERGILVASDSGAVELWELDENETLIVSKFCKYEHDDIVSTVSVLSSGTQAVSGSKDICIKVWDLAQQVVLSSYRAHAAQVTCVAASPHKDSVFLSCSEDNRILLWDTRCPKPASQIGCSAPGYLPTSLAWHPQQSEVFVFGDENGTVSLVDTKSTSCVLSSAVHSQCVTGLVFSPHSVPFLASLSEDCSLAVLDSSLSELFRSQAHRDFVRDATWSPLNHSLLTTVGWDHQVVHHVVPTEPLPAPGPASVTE
Assay: In vitro assay 1a: high throughput mass spectrometer assay of SAH formation, 10 nM enzyme, 60 min
Type: biochemical
Details: averaged values, PRMT5-MEP50, 10 nM enzyme, read-out: pIC50 Assay 1a (converted)
assay_readout: IC50 (µM)

1) Nc1ncnc2c1ccn2[C@@H]1O[C@H](COc2ccc3cncnc3c2)[C@@H](O)[C@H]1O; 0.251

(1) Nc1ncnc2c1ccn2[C@@H]1O[C@H](COc2ccc3cc(C4CC4)cnc3c2)[C@@H](O)[C@H]1O
(2) NC(=O)c1ccc2ccc(OC[C@H]3O[C@@H](n4ccc5c(N)ncnc54)[C@H](O)[C@@H]3O)cc2n1
(3) COc1ncnc2c1ccn2[C@@H]1O[C@H](CNc2ccc3cc(Br)cnc3c2)[C@@H](O)[C@H]1O
(4) Nc1ncnc2c1ccn2[C@@H]1O[C@H](COc2ccc3cc(Cl)cnc3c2Cl)[C@@H](O)[C@H]1O
**Q:** # sort list by recorded IC50, greatest to least Enter labels, ranked according to the request.
**A:** 2, 4, 3, 1

(I) COc1ccc2ccc(OC[C@H]3O[C@@H](n4ccc5c(N)ncnc54)[C@H](O)[C@@H]3O)cc2n1
(II) CNc1ccc2ccc(CC[C@H]3O[C@@H](n4ccc5cncnc54)[C@H](O)[C@@H]3O)cc2n1
**Q:** Would you mind telling me which has the lower recorded IC50 between I and II ? Provide the label of your selected option as the answer.
**A:** II
(II: 0.01 µM, I: 1.58 µM)

----------
Target: PRMT5-MEP50 enzyme (Homo sapiens)
Construct: One virus expresses full length human PRMT5 with Flag-tag at N-terminus; Flag (N); purchased Charles River (Argenta); host or cells: insect cells (Sf9), baculovirus co-infection
Assay: In vitro assay 1b: high throughput mass spectrometer assay of SAH formation, 1.25 nM enzyme, 120 min
Format: biochemical
Conditions: averaged values; PRMT5-MEP50, 1.25 nM enzyme, 120 min; read-out: pIC50 Assay 1b (converted)
assay_readout: IC50 (nM)

Recorded IC50, per entry:
1. Nc1ncnc2c1ccn2[C@@H]1C[C@H](Cc2ccc3cccnc3c2)[C@@H](O)[C@H]1O; 5010
2. CNc1ccc2ccc(CC[C@H]3C[C@@H](n4ccc5c(C)ncnc54)[C@H](O)[C@@H]3O)cc2n1; 3.98
3. CCc1cnc2cc(CC[C@H]3C[C@@H](n4ccc5c(N)ncnc54)[C@H](O)[C@@H]3O)ccc2c1; 25.1

(A) Nc1ncnc2c1ccn2[C@@H]1O[C@H](CCc2ccc3cc(Cl)cnc3c2)[C@@H](O)[C@H]1O
(B) Nc1ncnc2c1ccn2[C@@H]1O[C@H](COc2ccc3cccnc3c2)[C@@H](O)[C@H]1O
**Q:** // select label with min value of measured IC50 from [ A , B ] Which one? Tell me its label.
**A:** B

----------
Target: PRMT5-MEP50 enzyme (Homo sapiens)
Construct: One virus expresses full length human PRMT5 with Flag-tag at N-terminus; Flag (N); purchased Charles River (Argenta); host or cells: insect cells (Sf9), baculovirus co-infection
Experiment: In vitro assay 1b: high throughput mass spectrometer assay of SAH formation, 1.25 nM enzyme, 120 min
Assay type: biochemical
Conditions: averaged values; PRMT5-MEP50, 1.25 nM enzyme, 120 min; read-out: pIC50 Assay 1b (converted)
assay_readout: IC50 (nM)

1) C=C(C)c1cnc2cc(OC[C@H]3O[C@@H](n4ccc5c(N)ncnc54)[C@H](O)[C@@H]3O)ccc2c1; 50.1

(a) CC(C)c1cnc2cc(OC[C@H]3O[C@@H](n4ccc5c(N)ncnc54)[C@H](O)[C@@H]3O)ccc2c1
(b) COCc1ccc2ccc(OC[C@H]3O[C@@H](n4ccc5c(N)ncnc54)[C@H](O)[C@@H]3O)cc2n1
(c) Nc1ncnc2c1ccn2[C@@H]1C[C@H](Cc2ccc3ccncc3c2)[C@@H](O)[C@H]1O
**Q:** Thanks in advance: please rank these 3 entries by IC50, highest to lowest. List each label, following the requested order.
**A:** b, c, a
